- Assay: Pharmacokinetics (plasma and lung) after single oral dose in mice
- Format: in vivo, Swiss Webster mice
- Run Parameters: Swiss Webster, mouse, po; plasma, 60 mg/kg p.o. single dose
Endpoint: AUC(0-inf)
A complete answer gives the number and then names the unit.

query: For COC(=O)N[C@H](C(=O)N1CCC[C@H]1c1nc(-c2ccc(-c3ccc(-c4c[nH]c([C@@H]5CCCN5C(=O)[C@@H](NC(=O)OC)C(C)C)n4)cc3)cc2)c[nH]1)C(C)C , what is its reported AUC(0-inf)?
result: 103 µg·h/mL

----------
- Assay: Pharmacokinetics (plasma and lung) after single oral dose in mice
- Assay type: in vivo, Swiss Webster mice
- Run Parameters: Swiss Webster, mouse, po; plasma, 60 mg/kg p.o. single dose
Endpoint: AUC(0-t)

query: Recorded AUC(0-t) for COC(=O)N[C@H](C(=O)N1CCC[C@H]1c1nc(-c2ccc(-c3ccc(-c4c[nH]c([C@@H]5CCCN5C(=O)[C@@H](NC(=O)OC)C(C)C)n4)cc3)cc2)c[nH]1)C(C)C , please?
result: 101 µg·h/mL

Data origin: paper PMC11680164
